Entry source: ChEMBL document CHEMBL2375245

Assignment: determine reported Ki for the given compounds.
- target or test system: Botulinum neurotoxin type A (Clostridium botulinum)
- assay notes: Inhibition of Clostridium botulinum BoNT/A light chain (1 to 429 amino acid) using Abz-Thr-dArg-Ile-Asp-Glu-Ala-Asn-Gln-Arg-Ala-Thr-Lys-Nle-Lys(Dnp)-NH2 as substrate after 10 mins by FRET assay

Respectfully, I request Ki for each entry included below.
1. O=C(CCN1C(=O)c2ccccc2C1c1c[nH]c2ccccc12)NO (configuration not stated)
2. O=C(CN1C(=O)c2ccccc2C1c1c[nH]c2ccccc12)NO (configuration not stated)
3. O=C(CC1C(=O)NCCN1C/C=C/c1ccccc1)NO (configuration not stated)
4. COc1ccc(CN2CCNC(=O)C2CC(=O)NO)cc1OC (configuration not stated)
5. Cc1nnc(SCC(=O)NO)n1Cc1ccccc1

Output:
["194 µM", "> 300 µM", "> 300 µM", "> 300 µM", "> 300 µM"]

Respectfully, I request Ki for each entry included below.
1. Cc1[nH]c2ccccc2c1C1c2ccccc2C(=O)N1CC(=O)NO (configuration not stated)
2. O=C(CC1SC(N2CCCC2)=NC1=O)NO (configuration not stated)
3. NC(=O)C1CC(C(=O)NO)=NN1c1ccccc1 (configuration not stated)
4. Cc1ccc(CN(CC(=O)NO)S(=O)(=O)c2ccccc2)cc1

Output:
1. 142 µM
2. > 300 µM
3. > 300 µM
4. 142 µM

Respectfully, I request Ki for each entry included below.
1. O=C(NC(Cc1c[nH]c2ccccc12)C(=O)NO)c1ccco1 (configuration not stated)
2. O=C(NO)c1ccccc1-c1ccccc1C(=O)Nc1ccccn1
3. CCCCOc1ccccc1-c1cc(C(=O)NO)[nH]n1

Output:
> 300 µM
21 µM
> 300 µM

###

Assignment: determine reported pKi for the given molecules.
- target or test system: Botulinum neurotoxin type A (Clostridium botulinum, UniProt P0DPI0)
- Sequence (P0DPI0 2-448 limits assumed): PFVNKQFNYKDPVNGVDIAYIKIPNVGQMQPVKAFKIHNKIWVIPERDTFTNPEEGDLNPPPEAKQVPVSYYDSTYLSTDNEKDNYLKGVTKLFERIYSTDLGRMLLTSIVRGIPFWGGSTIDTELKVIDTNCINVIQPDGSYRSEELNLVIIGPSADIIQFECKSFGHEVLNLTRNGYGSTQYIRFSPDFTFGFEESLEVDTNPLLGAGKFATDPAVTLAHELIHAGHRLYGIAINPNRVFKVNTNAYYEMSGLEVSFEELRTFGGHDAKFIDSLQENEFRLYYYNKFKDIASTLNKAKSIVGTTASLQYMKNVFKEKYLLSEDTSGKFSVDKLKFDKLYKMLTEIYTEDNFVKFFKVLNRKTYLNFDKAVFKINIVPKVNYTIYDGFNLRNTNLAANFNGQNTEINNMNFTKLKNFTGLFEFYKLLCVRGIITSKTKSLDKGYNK
- assay notes: Inhibition of Clostridium botulinum BoNT/A light chain (1 to 429 amino acid) using Abz-Thr-dArg-Ile-Asp-Glu-Ala-Asn-Gln-Arg-Ala-Thr-Lys-Nle-Lys(Dnp)-NH2 as substrate after 10 mins by FRET assay
pKi: −log10 of the molar value.

Solved entries (count: 10):
>  <molecule>
COc1ccccc1-c1cc(C(=O)NO)[nH]n1

>  <reported>
< 3.52

$$$$
>  <molecule>
O=C(NC(Cc1c[nH]c2ccccc12)C(=O)NO)c1ccc(F)cc1 (configuration not stated)

>  <reported>
3.67

$$$$
>  <molecule>
O=C(CCC(=O)N(c1ccccc1)c1ccccc1)NO

>  <reported>
< 3.52

$$$$
>  <molecule>
O=C(CC1Sc2ccccc2NC1=O)NO (configuration not stated)

>  <reported>
< 3.52

$$$$
>  <molecule>
Cc1nc(C)c(CCC(=O)NO)c(=O)[nH]1

>  <reported>
< 3.52

$$$$
>  <molecule>
O=C(NC(Cc1c[nH]c2ccccc12)C(=O)NO)c1ccc(Cl)s1 (configuration not stated)

>  <reported>
< 3.52

$$$$
>  <molecule>
Cc1cc(C(=O)NC(Cc2c[nH]c3ccccc23)C(=O)NO)c(C)o1 (configuration not stated)

>  <reported>
< 3.52

$$$$
>  <molecule>
Cc1ccc(C(=O)NC(Cc2c[nH]c3ccccc23)C(=O)NO)o1 (configuration not stated)

>  <reported>
< 3.52

$$$$
>  <molecule>
O=C(Cc1nc(-c2cccnc2)sc1-c1ccc(Cl)cc1)NO

>  <reported>
< 3.52

$$$$
>  <molecule>
O=C(NO)c1cccc(-c2ccc(CNCC3CCCO3)o2)c1 (configuration not stated)

>  <reported>
< 3.52

$$$$

Respectfully, I request pKi for each entry included below.
1. CCC(C)C(C(=O)NO)N1C(=O)c2ccccc2C1=O (configuration not stated)
2. O=C(COc1ccccc1)NC(Cc1ccccc1)C(=O)NO (configuration not stated)
3. O=C(NC(Cc1ccccc1)C(=O)NO)C1CCCCC1 (configuration not stated)

Output:
1: 3.73; 2: < 3.52; 3: < 3.52

Respectfully, I request pKi for each entry included below.
1. O=C(Cn1nc(Cc2ccccc2)c2ccccc2c1=O)NO
2. Cc1nnc(SCc2ccccc2C(=O)NO)n1C
3. O=C(CNC(=O)c1ccc2noc(-c3ccccc3)c2c1)NO
4. Cc1ccc(OCC(=O)NC(Cc2ccccc2)C(=O)NO)cc1 (configuration not stated)

Output:
1. 4.03
2. < 3.52
3. 4.11
4. < 3.52

###

- target or test system: Botulinum neurotoxin type A (Clostridium botulinum, UniProt P0DPI0)
result type: pKi
Give bare numbers, as −log10 of the molar value.

Input: Given O=C(CN(Cc1ccccc1)Cc1ccccc1)NO , state its recorded pKi.
Output: 4.05
